assayed.target: about a hundred receptors, enzymes, transporters and channels
protocol.summary: CEREP panel, competition binding and enzyme assays
condition.notes: read-out: Ki values in all these assays; inferred from <50% inhibition at 10 μM
pKi: −log10 of the molar value.
value.type: pKi

[[record]]
molecule = "O=C1c2cc3nnn(CCc4cccc(F)c4)c(=O)c3cc2OCN1C1CC1"
assayed_target = "about a hundred receptors, enzymes, transporters and channels"
value_type = "pKi"
reported = "< 5.00"


---

assayed.target: human AMPA receptor GluA4i/2o (Homo sapiens, UniProt P42262+P48058, Q607R)
Sequence (P48058 21-902): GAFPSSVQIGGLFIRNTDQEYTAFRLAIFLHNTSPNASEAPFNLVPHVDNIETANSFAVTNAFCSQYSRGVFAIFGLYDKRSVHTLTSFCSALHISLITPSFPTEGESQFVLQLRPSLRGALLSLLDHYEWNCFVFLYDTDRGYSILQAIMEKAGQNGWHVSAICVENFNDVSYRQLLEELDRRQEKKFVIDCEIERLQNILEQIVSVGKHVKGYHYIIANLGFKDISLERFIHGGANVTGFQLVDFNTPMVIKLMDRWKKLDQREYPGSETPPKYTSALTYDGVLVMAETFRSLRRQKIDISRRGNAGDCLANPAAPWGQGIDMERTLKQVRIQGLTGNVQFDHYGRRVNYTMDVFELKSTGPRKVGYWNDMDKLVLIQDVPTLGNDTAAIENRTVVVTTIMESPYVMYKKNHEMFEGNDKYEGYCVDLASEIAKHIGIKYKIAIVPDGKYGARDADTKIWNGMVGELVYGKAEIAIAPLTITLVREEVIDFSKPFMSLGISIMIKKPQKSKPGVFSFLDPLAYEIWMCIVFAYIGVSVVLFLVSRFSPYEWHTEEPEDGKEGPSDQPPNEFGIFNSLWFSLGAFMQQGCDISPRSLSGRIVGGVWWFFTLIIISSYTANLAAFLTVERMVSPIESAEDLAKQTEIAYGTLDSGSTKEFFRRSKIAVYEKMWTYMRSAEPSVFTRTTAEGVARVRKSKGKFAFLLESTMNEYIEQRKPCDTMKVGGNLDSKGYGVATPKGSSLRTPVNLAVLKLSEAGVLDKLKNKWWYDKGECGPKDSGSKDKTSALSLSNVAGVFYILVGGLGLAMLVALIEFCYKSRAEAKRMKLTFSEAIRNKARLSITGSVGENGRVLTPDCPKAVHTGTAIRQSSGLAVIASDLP
Sequence (P42262 22-883 Q607R limits assumed): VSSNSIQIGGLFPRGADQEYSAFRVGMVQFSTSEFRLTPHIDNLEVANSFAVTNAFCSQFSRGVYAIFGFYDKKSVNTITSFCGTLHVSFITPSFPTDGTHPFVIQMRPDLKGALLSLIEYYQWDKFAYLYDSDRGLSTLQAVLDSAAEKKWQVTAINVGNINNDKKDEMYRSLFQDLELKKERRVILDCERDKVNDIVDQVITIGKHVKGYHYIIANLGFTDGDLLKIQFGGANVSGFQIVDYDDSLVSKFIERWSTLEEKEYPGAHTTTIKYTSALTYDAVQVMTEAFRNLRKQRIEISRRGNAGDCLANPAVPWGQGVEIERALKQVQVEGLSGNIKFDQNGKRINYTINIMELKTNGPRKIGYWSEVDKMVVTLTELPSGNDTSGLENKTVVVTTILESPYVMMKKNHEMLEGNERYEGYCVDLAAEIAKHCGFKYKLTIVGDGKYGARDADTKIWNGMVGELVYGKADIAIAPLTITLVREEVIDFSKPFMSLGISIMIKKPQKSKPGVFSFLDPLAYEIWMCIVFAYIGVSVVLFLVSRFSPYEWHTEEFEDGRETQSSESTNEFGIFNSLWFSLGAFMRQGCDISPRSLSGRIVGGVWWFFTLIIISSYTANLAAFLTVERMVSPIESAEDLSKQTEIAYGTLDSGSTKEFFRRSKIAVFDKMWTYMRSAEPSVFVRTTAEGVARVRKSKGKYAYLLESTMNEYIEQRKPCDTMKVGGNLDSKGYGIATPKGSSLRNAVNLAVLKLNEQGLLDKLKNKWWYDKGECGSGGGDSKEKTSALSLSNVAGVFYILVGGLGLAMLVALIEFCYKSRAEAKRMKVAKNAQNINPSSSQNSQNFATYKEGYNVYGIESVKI
protocol.summary: Glutamate-evoked currents, oocytes expressing recombinant human AMPA receptors
pEC50: −log10 of the molar value.
value.type: pEC50

[[record]]
molecule = "O=C1c2cc3nnn(CCc4cccc(F)c4)c(=O)c3cc2OCN1C1CC1 [S 47445]"
assayed_target = "human AMPA receptor GluA4i/2o (Homo sapiens, UniProt P42262+P48058, Q607R)"
reported = 5.48


---

Test system: Human AMPA receptors
protocol.summary: AMPA-evoked currents, Xenopus laevis oocytes injected with human hippocampal poly(A+) mRNA
Assay type: cell-based
condition.notes: potentiation of 10 μM AMPA-evoked current; geometric mean
value.type: EC50 (µM)

[[record]]
compound = "O=C1c2cc3nnn(CCc4cccc(F)c4)c(=O)c3cc2OCN1C1CC1"
value_type = "EC50"
reported = 7.08

[[record]]
compound = "O=C1c2cc3c(cc2OC2CCCN12)OCCO3 (stereo not shown)"
value_type = "EC50"
reported = 11.4

[[record]]
compound = "NS(=O)(=O)c1cc2c(cc1Cl)NC(C1CC3C=CC1C3)NS2(=O)=O (stereo not shown) [Cyclothiazide]"
value_type = "EC50"
reported = 9.33

[[record]]
compound = "CC(CNS(=O)(=O)C(C)C)c1ccc(-c2ccc(C#N)cc2)cc1 (stereo not shown)"
value_type = "EC50"
reported = 4.64


---

assayed.target: GluA1flop/GluA2flip AMPA receptors (Homo sapiens, UniProt P42261+P42262, Q607R)
Construct: host or cells: Xenopus laevis oocytes
Sequence (P42261 19-906): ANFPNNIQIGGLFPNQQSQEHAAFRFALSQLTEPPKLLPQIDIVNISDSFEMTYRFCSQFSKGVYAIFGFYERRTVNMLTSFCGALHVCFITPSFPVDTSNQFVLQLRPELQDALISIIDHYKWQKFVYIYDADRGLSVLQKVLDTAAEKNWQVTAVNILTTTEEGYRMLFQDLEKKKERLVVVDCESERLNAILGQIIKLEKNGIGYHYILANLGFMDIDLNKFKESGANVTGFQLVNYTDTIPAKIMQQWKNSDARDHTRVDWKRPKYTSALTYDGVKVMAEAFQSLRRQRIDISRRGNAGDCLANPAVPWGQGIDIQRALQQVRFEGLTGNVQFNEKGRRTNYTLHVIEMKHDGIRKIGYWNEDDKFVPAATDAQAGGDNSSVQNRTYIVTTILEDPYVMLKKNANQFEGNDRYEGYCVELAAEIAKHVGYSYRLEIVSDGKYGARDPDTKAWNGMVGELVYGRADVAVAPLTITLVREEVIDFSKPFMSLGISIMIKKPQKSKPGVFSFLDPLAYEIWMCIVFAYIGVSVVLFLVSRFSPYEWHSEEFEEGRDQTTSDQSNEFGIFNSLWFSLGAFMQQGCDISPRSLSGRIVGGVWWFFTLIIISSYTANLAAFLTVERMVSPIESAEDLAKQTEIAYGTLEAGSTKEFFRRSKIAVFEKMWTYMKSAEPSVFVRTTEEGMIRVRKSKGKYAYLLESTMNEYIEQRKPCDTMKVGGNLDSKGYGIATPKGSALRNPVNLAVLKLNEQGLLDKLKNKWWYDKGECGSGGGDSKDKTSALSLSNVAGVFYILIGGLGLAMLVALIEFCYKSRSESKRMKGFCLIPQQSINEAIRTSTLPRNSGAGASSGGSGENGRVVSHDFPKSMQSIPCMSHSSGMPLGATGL
Sequence (P42262 22-883 isoform P42262-2 Q607R limits assumed): as the sequence (P42262 22-883 Q607R limits assumed) above, with N744T, A745P, N754S, L758V, S775A, G776K, G777D, G778S, D779G counted along it
protocol.summary: 10 μM glutamate-evoked currents in Xenopus laevis oocytes expressing GluA1flop/GluA2flip (repetitive pulses, GYKI52466)
Assay type: cell-based
condition.notes: EC50 of potentiation in absence of GYKI52466, 10 μM glutamate; n = 3
value.type: EC50 (µM)

[[record]]
compound = "O=C1c2cc3nnn(CCc4cccc(F)c4)c(=O)c3cc2OCN1C1CC1 [S 47445]"
value_type = "EC50"
reported = 3.23


---

assayed.target: human AMPA receptor GluA1i/2o (Homo sapiens, UniProt P42261+P42262, Q607R)
Sequence (P42261 19-906 isoform P42261-2 limits assumed, stated change not applied): as the sequence (P42261 19-906) above, with N740G, N750S, L754V, N760S, G772K, G773D, G774S, D775G counted along it
Sequence (P42262 22-883 Q607R limits assumed): as the sequence (P42262 22-883 Q607R limits assumed) above
protocol.summary: Glutamate-evoked currents, oocytes expressing recombinant human AMPA receptors
Experimental: Compounds were tested by bath application.
pEC50: −log10 of the molar value.
value.type: pEC50

[[record]]
compound = "O=C1c2cc3nnn(CCc4cccc(F)c4)c(=O)c3cc2OCN1C1CC1 [S 47445]"
reported = 5.37


---

assayed.target: human AMPA receptor GluA4i/2i (Homo sapiens, UniProt P42262+P48058, Q607R)
Sequence (P48058 21-902): as the sequence (P48058 21-902) above
Sequence (P42262 22-883 isoform P42262-2 Q607R limits assumed): as the sequence (P42262 22-883 Q607R limits assumed) above, with N744T, A745P, N754S, L758V, S775A, G776K, G777D, G778S, D779G counted along it
protocol.summary: Glutamate-evoked currents, oocytes expressing recombinant human AMPA receptors
pEC50: −log10 of the molar value.
value.type: pEC50

[[record]]
molecule = "O=C1c2cc3nnn(CCc4cccc(F)c4)c(=O)c3cc2OCN1C1CC1"
value_type = "pEC50"
reported = 5.27

